Target: α-glucosidase
Experiment: In vitro α-glucosidase inhibition assay (pNPG substrate)
Conditions: mean ± SD, n = 3
Description: The α-glucosidase inhibition assay was carried out on the basis of the method reported by Zhang et al., with minor modifications. […] […] To initiate the reaction, pNPG (40 μL) was added to the reaction mixture and incubated at 37 °C for 30 min. The reaction was terminated by adding 20 μL of Na2CO3, after which the absorbance was determined at 405 nm by a microplate reader (SpectraMax190, Micro-g Biotech, Guangzhou, China).
Endpoint name: IC50

query: Look up and state reported IC50 for `CC1(C)CC[C@]2(C(=O)O[C@@H]3O[C@H](CO)[C@@H](O)[C@H](O)[C@H]3O)CC[C@]3(C)C(=CC[C@@H]4[C@@]5(C)CC[C@H](O[C@@H]6O[C@H](C(=O)O)[C@@H](O)[C@H](O[C@@H]7OC[C@@H](O)[C@H](O)[C@H]7O)[C@H]6O)C(C)(C)[C@@H]5CC[C@]43C)[C@@H]2C1`
result: > 50 µM

query: Look up and state reported IC50 for COC(=O)C1OC(OC2CCC3(C)C(CCC4(C)C3CC=C3C5CC(C)(C)CCC5(C(=O)OC5OC(CO)C(O)C(O)C5O)CCC34C)C2(C)C)C(O)C(OC2OCC(O)C(O)C2O)C1O (stereo not drawn)
result: > 50 µM
